Test system: HCC-2998 colon
Experiment: NCI tumour cell line growth inhibition, 48 h
experimental endpoint: TGI

{"compound": "Cc1cc(Oc2ccc3nc(COc4ccc(CC5SC(=O)NC5=O)cc4)n(C)c3c2)cc(C)c1N (stereo not given)", "experimental endpoint": "TGI", "recorded value": "> 100 µM"}
{"compound": "Cc1ccc(-c2nc(-c3cnccn3)n(C3OC(CO)C(O)C(O)C3O)n2)cc1 (stereo not given)", "experimental endpoint": "TGI", "recorded value": "> 100 µM"}
{"compound": "CC(=O)OCC(OC(C)=O)C(OC(C)=O)C(OC(C)=O)C(C=NN(C(C)=O)S(=O)(=O)c1ccc(/C=C2\\NC(=O)NC2=O)cc1)OC(C)=O (stereo not given)", "experimental endpoint": "TGI", "recorded value": "> 100 µM"}
{"compound": "CCCCCCc1nc2nc(Cl)c(Cl)nc2[nH]1", "experimental endpoint": "TGI", "recorded value": "> 100 µM"}

--- query ---
Value of TGI reported for the compound COc1ccc(CNc2nc3cc(N)cc(N)c3nc2-c2ccccc2)cc1 is 51.7 µM
